Biological target: Angiotensin II receptor (AT-1) type-1 (Rattus norvegicus, UniProt P29089+P25095)
Sequence (P29089 whole entry): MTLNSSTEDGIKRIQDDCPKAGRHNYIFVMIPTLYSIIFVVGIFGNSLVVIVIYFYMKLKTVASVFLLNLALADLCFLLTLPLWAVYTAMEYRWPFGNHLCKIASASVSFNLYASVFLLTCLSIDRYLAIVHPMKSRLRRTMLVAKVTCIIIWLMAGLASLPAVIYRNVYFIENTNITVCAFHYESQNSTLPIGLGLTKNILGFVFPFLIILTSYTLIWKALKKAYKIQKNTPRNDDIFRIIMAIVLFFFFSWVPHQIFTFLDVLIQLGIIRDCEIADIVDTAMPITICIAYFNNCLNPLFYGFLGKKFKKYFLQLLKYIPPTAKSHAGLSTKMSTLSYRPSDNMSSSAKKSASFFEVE
Sequence (P25095 whole entry): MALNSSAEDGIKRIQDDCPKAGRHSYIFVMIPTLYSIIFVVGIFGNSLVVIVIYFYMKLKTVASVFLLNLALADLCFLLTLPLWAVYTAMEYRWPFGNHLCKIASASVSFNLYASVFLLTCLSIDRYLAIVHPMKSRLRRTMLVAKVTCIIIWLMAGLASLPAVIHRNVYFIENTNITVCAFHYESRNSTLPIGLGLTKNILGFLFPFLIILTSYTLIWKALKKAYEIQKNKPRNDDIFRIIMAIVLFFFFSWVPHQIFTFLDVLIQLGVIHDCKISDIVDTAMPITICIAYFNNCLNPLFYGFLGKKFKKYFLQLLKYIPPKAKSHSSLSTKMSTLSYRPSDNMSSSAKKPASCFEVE
Assay: Inhibition of [3H]angiotensin II binding to rat adrenal cortex membrane containing angiotensin II receptor, type 1
Assay type: tissue-based
Reported Property: Ki (nM)

Example cases with answers are listed next.
CCCCc1nc(-c2cncc(C(=O)OC)c2)cn1Cc1ccc(-c2ccccc2-c2nn[nH]n2)cc1: 30
CCCCc1nc(-c2ccc(C(=O)OC)c[n+]2[O-])cn1Cc1ccc(-c2ccccc2-c2nn[nH]n2)cc1: 27
CCCCc1nc(-c2c(C(=O)OC)ccc(C)[n+]2[O-])cn1Cc1ccc(-c2ccccc2-c2nn[nH]n2)cc1: 4.5
CCCCc1nc(-c2cc(C(=O)OC)c[n+]([O-])c2)cn1Cc1ccc(-c2ccccc2-c2nn[nH]n2)cc1: 41
CCCCc1nc(-c2cccc(C(=O)OC)n2)cn1Cc1ccc(-c2ccccc2-c2nn[nH]n2)cc1: 19
CCCCc1nc(-c2c(OC)ccc(C)[n+]2[O-])cn1Cc1ccc(-c2ccccc2-c2nn[nH]n2)cc1: 38
CCCCc1nc(-c2cnccc2C(=O)OC)cn1Cc1ccc(-c2ccccc2-c2nn[nH]n2)cc1: 67
CCCCc1nc(-c2cnccn2)cn1Cc1ccc(-c2ccccc2-c2nn[nH]n2)cc1: 40

P: CCCCc1nc(-c2nc(C)cnc2C)cn1Cc1ccc(-c2ccccc2-c2nn[nH]n2)cc1
Q: CCCCc1nc(-c2nc(C)cc(C)c2C(=O)OC)cn1Cc1ccc(-c2ccccc2-c2nn[nH]n2)cc1
[Q] Lower Ki: P or Q ? Kindly state the label of the option you pick.
[A] Q
(Q: 53 nM, P: 77 nM)

I: CCCCc1nc(-c2ncccn2)cn1Cc1ccc(-c2ccccc2-c2nn[nH]n2)cc1
II: CCCCc1nc(-c2cncc[n+]2[O-])cn1Cc1ccc(-c2ccccc2-c2nn[nH]n2)cc1
III: CCCCc1nc(-c2nc(C)c[n+]([O-])c2C)cn1Cc1ccc(-c2ccccc2-c2nn[nH]n2)cc1
IV: CCCCc1nc(-c2ccc(C)[n+]([O-])n2)cn1Cc1ccc(-c2ccccc2-c2nn[nH]n2)cc1
V: CCCCc1nc(-c2ccc(C(=O)OC)cn2)cn1Cc1ccc(-c2ccccc2-c2nn[nH]n2)cc1
[Q] Parameters: sort_field (Ki), sort_dir (desc). Reply: labels, ordered per the request.
[A] II, I, IV, V, III

a: CCCCc1nc(-c2nccc[n+]2[O-])cn1Cc1ccc(-c2ccccc2-c2nn[nH]n2)cc1
b: CCCCc1nc(-c2c(C(=O)OC)ccc[n+]2[O-])cn1Cc1ccc(-c2ccccc2-c2nn[nH]n2)cc1
[Q] Short answer wanted: higher Ki, a or b ? Pick one and reply with its label.
[A] a
